- system.tested: T1, human TNFR2 on the surface of CHO-TNFR2 cells (human, UniProt P20333 23-461)
- T1 construct: whole, on cells
- T1 sequence (looked up): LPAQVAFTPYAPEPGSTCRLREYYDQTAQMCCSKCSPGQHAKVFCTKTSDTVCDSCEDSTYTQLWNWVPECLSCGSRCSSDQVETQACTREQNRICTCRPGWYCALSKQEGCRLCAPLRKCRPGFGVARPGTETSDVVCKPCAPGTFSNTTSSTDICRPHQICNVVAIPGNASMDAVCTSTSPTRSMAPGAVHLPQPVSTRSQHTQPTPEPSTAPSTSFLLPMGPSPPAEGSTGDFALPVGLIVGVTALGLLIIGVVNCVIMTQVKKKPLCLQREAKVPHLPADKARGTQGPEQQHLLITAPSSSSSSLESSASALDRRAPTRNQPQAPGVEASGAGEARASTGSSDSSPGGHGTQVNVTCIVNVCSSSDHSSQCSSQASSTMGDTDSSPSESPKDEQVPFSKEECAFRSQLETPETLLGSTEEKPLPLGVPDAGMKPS
- experiment.description: flow cytometry on CHO-TNFR2 cells
Quick list: EC50 per entry.
Write the answer as a number in ng/mL, unit excluded.

219-Hu3 (antibody, V domains shown, also called VH5 + VL5) VH: QVQLVQSGAEVKKPGSSVKVSCKASGYSFTNYWMNWVRQAPGQGLEWMGMIHPSDTETRLNQNFKDRVTITADKSTSTAYMELSSLRSEDTAVYYCARGEGLGAARSVSMDYWGQGTLVTVSS VL: DIQMTQSPSSLSASVGDRVTITCRASQDISNYLNWYQQKPDGTVKLLIYYTAILHSGVPSRFSGSGSGTDYSLTISSLQPEDFATYFCQQGNTLPWTFGQGTKVEIK :: 0.018
001-WT (antibody, V domains shown, Human-murine chimeric wild-type molecule; also called human-murine chimeric antibody WT of #001) VH: EVQLQESGGGLVQPGGSLNLSCAASGFAFSTYDLSWVRQTPEKRLEWVAYINNGGISTYYSDTVKGRFTISRDNAKNTLYLQMSSLKSEDTAMYYCVRGPFYGSANYFDYWGQGTTVTVSS VL: EIVMTQSPASLSLSVGETVTITCRTSESIYSNLPWYQQKQGKSPQLLVYDATKLAEGVPSRFSGSESGTQYSLKINSLQSEDFGTYYCQHFWVTPWTFGGGTKLEIK :: 0.035

Turning to the following binder.
IN: I am curious: what EC50 value has been reported for 219-Hu5 (antibody, V domains shown, also called VH7 + VL5) VH: QVQLVQSGAEVKKPGSSVKVSCKASGYSFTNYWMNWVRQAPGQGLEWMGMIHPSDTETRLNQNFKDRVTITVDKSTSTAYMELSSLRSEDTAVYYCARGEGLGAARSVSMDYWGQGTLVTVSS VL: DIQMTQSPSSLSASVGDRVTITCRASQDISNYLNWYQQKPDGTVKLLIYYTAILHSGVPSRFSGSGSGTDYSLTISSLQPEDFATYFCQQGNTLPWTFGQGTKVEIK ?
OUT: 0.018
